# ASSAY SYSTEM: SpHof1
# TEST DESCRIPTION: SPOT peptide array binding signal intensity (averaged, normalized) (arbitrary units (background-subtracted, floor 0; scale differs between SH3 domains)); higher = stronger binding of the SH3 domain to the peptide
READOUT TYPE: SPOT peptide array binding signal intensity

GET /value?item= `KTITLEVESSDTIDN` &field=SPOT peptide array binding signal intensity returns ≤ 0

GET /value?item= `RFKRHRLEFPFNESE` &field=SPOT peptide array binding signal intensity returns 68.2

GET /value?item= `MAMRPIPPLPTESEY` &field=SPOT peptide array binding signal intensity returns 140

GET /value?item= `RRSKSLPITPKSIFN` &field=SPOT peptide array binding signal intensity returns 2190

GET /value?item= `RSLRKRPTSPSISGS` &field=SPOT peptide array binding signal intensity returns 428

Continuing:
GET /value?item= `ALRRRLPVTRSKINW` &field=SPOT peptide array binding signal intensity returns 357

GET /value?item= `KTRLRPAFIQQLWSS` &field=SPOT peptide array binding signal intensity returns 117

GET /value?item= `RSVKRPRRAPRPVVS` &field=SPOT peptide array binding signal intensity returns 268

GET /value?item= `LASNSPPVYPKRIRH` &field=SPOT peptide array binding signal intensity returns 1.5

GET /value?item= `PLQSKIPMLPSRRTM` &field=SPOT peptide array binding signal intensity returns 61.2

GET /value?item= `ALKQKKIPPPFKPHL` &field=SPOT peptide array binding signal intensity returns ≤ 0

GET /value?item= `PALPSLPPPPLLNVD` &field=SPOT peptide array binding signal intensity returns ≤ 0

GET /value?item= `PPIPIVPSSPAPPLP` &field=SPOT peptide array binding signal intensity returns ≤ 0
